- Tested on: HT29 colon
- Method Summary: NCI tumour cell line growth inhibition, 48 h
Measured Quantity: TGI

                                    compound       value
 0                             O=C(O)C(Cl)Cl  > 10000 µM
 1  CN(C)CC1CCC/C1=N/OC(=O)c1ccccc1 (stereo not drawn)    > 100 µM
 2  O=C1NC(=NCc2ccccc2)S/C1=C\c1ccc2ncccc2c1     > 25 µM
 3  O=c1cc(-c2ccc3c(c2)OCO3)[nH]c2cc3c(cc12)OCO3    > 100 µM
 4  [O-][Cl+3]([O-])([O-])[O-].[O]=[Ru]=[O].c1ccc(-c2ccccn2)nc1.c1ccc(-c2ccccn2)nc1    > 100 µM
 5  O=C1c2ccccc2-n2nnnc2C2CSCN12 (stereo not drawn)    > 100 µM
 6           CCOC(=O)c1ccc(-c2cc(C)no2)[nH]1    > 100 µM
 7  C[C@]12[C@@H]3CC[C@H]1[C@@H](O)C(=O)N2CC3    > 100 µM
 8  COC(=O)c1ccc(Cc2cc(Cc3ccc(C(=O)OC)cc3)cc(Cc3ccc(C(=O)OC)cc3)c2)cc1     > 25 µM
 9        O=c1[nH]c(-c2ccccc2)nc2cc(Cl)ccc12    > 100 µM
10  O=C1c2c(F)c(F)c(F)c(F)c2C(=O)N1c1ccc(F)cc1F    > 100 µM
11  CON(C)C(=O)C(Cc1ccccc1)NC(=O)OCc1ccccc1 (stereo not drawn)    > 100 µM
12            Cc1ccc2nc(-c3ccccc3)cc(=O)n2c1    > 100 µM

* * *

Each record here notes measured TGI.
- Tested on: SK-OV-3 ovarian
- Method Summary: NCI tumour cell line growth inhibition, 48 h
Measured Quantity: TGI

In [3]: df
Out[3]:
                                   molecule              tgt  measured_quantity     value
0  CC1(C)CC(c2c[nH]c3ccccc23)=CC2=Nc3ccccc3C21O (stereo not drawn)  SK-OV-3 ovarian                TGI  > 100 µM
1               COc1cc(-c2cccs2)sc1-c1cccs1  SK-OV-3 ovarian                TGI  > 100 µM
2  CON(C)C(=O)C(Cc1ccccc1)NC(=O)OCc1ccccc1 (stereo not drawn)  SK-OV-3 ovarian                TGI  > 100 µM

* * *

- Test system: A549 NSCLC
- Method Summary: NCI tumour cell line growth inhibition, 48 h
Consider the following molecules and their measured TGI readings.
Measured Quantity: TGI

In [3]: df
Out[3]:
                                   molecule  measured_quantity     value
0  COC(=O)CC(C)(NS(=O)c1ccc(C)cc1)c1ccccc1 (stereo not drawn)                TGI  > 100 µM
1  Cc1ccc(Nc2nc(NNC(=O)Cc3ccccc3)nc(NNC(=O)c3ccncc3)n2)cc1                TGI   > 10 µM
2  C=C1c2nc3ccccc3n2C=C(c2ccc(OC)cc2)N1c1ccc(OC)cc1                TGI  > 100 µM
